- System: M14 melanoma
- protocol_description: NCI tumour cell line growth inhibition, 48 h
experimental_endpoint: TGI

Guide cases for TGI, answers given:
- compound: "C[C@]12CCC3[C@@H](CCC45OC4C(=O)CC[C@]35C)C1Cc1cnn(-c3ccc(F)cc3)c1N2 (some centres undefined)"
  readout_value: "> 100 µM"
- compound: "COc1ccc2c(c1)c(-c1nc(-c3c[nH]c4ncccc34)cs1)cn2CCCN1CCOCC1"
  readout_value: "3.58 µM"

# return TGI for each item in the list
1. COC(=O)C(Cc1cn(C(C)n2cc(CC(NC(C)=O)C(=O)OC)c3ccccc32)c2ccccc12)NC(C)=O (centres undefined)
2. CCCCCCCC(=O)OCC(COC(=O)C(C)(C)C)OC(=O)Cc1ccccc1 (centres undefined)

1. > 100 µM
2. > 100 µM

---

- Tested on: OVCAR-5 ovarian
- protocol_description: NCI tumour cell line growth inhibition, 48 h
experimental_endpoint: TGI (µM)
Give bare numbers, in µM.

Guide cases for TGI, answers given:
- compound: "COc1ccc(C)cc1N1C(=O)C2ON(Cc3ccc(CC(N)=O)cc3)C(c3c4ccccc4c(Cl)c4ccccc34)C2C1=O (centres undefined)"
  experimental_endpoint: "TGI"
  readout_value: 58.5
- compound: "CC1=C(C(=O)Nc2ccccc2)C(c2ccc(N(C)C)cc2)C(C(=O)Nc2ccccc2)=C(C)N1"
  experimental_endpoint: "TGI"
  readout_value: 99
- compound: "c1ccc(-c2c(-c3ccccc3)[n+](Cc3ccc4ccccc4c3)c(-c3ccc(-c4nc5ccccc5s4)cc3)n2Cc2ccc3ccccc3c2)cc1"
  experimental_endpoint: "TGI"
  readout_value: 1.17

Let us move to another entry and its TGI.
Returns the measured TGI for the input compound. Input: CCCCCCN(CCCCCC)C(=S)N/N=C(\C)c1ccccn1
5.59

---

- Test system: HS 578T breast
- protocol_description: NCI tumour cell line growth inhibition, 48 h
experimental_endpoint: TGI (µM)
Give bare numbers, in µM.

- compound: "Nc1nc2c(c3cnccc13)C(c1ccc(Cl)c(Cl)c1)Cc1cnccc1-2 (centres undefined)"
  readout_unit: "µM"
  TGI: 22

Let us move to another entry and its TGI.
Please provide the recorded TGI for COc1ccc2c(c1)c1c(n2CCN2CCCCC2)-c2cccc(OC)c2CC1 , tested on HS 578T breast.
42.4

---

- Tested on: TK-10 renal
- protocol_description: NCI tumour cell line growth inhibition, 48 h
experimental_endpoint: TGI

Guide cases for TGI, answers given:
- molecule: "CC(=O)ON1CCCC(P(=O)(OCOC(=O)C(C)(C)C)OCOC(=O)C(C)(C)C)C1=O (stereo unspecified)"
  measured_target: "TK-10 renal"
  TGI: "6.89 µM"
- molecule: "CO/N=C1\\CC(NC(=O)C(F)(F)F)c2ccsc21 (stereo unspecified)"
  measured_target: "TK-10 renal"
  TGI: "> 100 µM"
- molecule: "O=C1Oc2ccccc2C(=O)/C1=C1/C=C(c2ccccc2)SS1"
  measured_target: "TK-10 renal"
  TGI: "> 100 µM"
- molecule: "CC1(C)OC[C@@H]([C@@]2(CO[Si](c3ccccc3)(c3ccccc3)C(C)(C)C)CC=CC(=O)O2)O1"
  measured_target: "TK-10 renal"
  TGI: "33 µM"
- molecule: "COC1OC(C)C(NC(=O)OCC(Cl)(Cl)Cl)C2OC(C)(C)OC12 (stereo unspecified)"
  measured_target: "TK-10 renal"
  TGI: "> 100 µM"
- molecule: "COc1ccc(CNc2cnc3ccc(N)cc3n2)cc1"
  measured_target: "TK-10 renal"
  TGI: "> 100 µM"
- molecule: "c1ccc(C2=NC3OC2c2ccccc23)cc1 (stereo unspecified)"
  measured_target: "TK-10 renal"
  TGI: "> 10 µM"
- molecule: "O=C1NC2=C(CCCCC/C2=N\\O)C12CCCCCC2"
  measured_target: "TK-10 renal"
  TGI: "> 100 µM"
- molecule: "COc1cc2c(cc1Nc1nc(N3CCc4ccccc43)c3cc[nH]c3n1)N(C(=O)CN(C)C)CC2"
  measured_target: "TK-10 renal"
  TGI: "3.37 µM"
- molecule: "CN1CSC(=S)N(c2cccc(C(F)(F)F)c2)C1"
  measured_target: "TK-10 renal"
  TGI: "72.3 µM"

Let us move to another entry and its TGI.
Returns the measured TGI for the input molecule. Input: Cc1c(C(=N)C(C#N)C#N)c(=N)oc2c1ccc1ccccc12
> 100 µM

---

For each entry below, report its TGI value.
- Tested on: HCC-2998 colon
- protocol_description: NCI tumour cell line growth inhibition, 48 h

Guide cases for TGI, answers given:
- compound: "CN(CCN1CCCC1)C1CCc2cc(Cl)c(Cl)cc2C1 (stereo unspecified)"
  readout_value: "18.2 µM"
- compound: "COc1ccc(CNc2cnc3ccc(N)cc3n2)cc1"
  readout_value: "> 100 µM"
- compound: "O=C(/C=C/c1ccc(Cl)cc1)Oc1ccc(C=C2CCC/C(=C\\c3ccc(OC(=O)/C=C/c4ccc(Cl)cc4)cc3)C2=O)cc1"
  readout_value: "> 100 µM"
- compound: "Cc1c(N2CCOCC2)nc2ccc(Cl)cc2c1-c1ccccc1"
  readout_value: "> 100 µM"
- compound: "O=c1[nH]c(NCc2ccncc2)nc2nc[nH]c12"
  readout_value: "> 100 µM"
- compound: "Cc1ccc(S(=O)(=O)OCC/C(=C\\[Si](C)(C)C)c2ccccc2)cc1"
  readout_value: "> 100 µM"

# return TGI for each item in the list
1. COc1cc2c(cc1Nc1nc(N3CCc4ccccc43)c3cc[nH]c3n1)N(C(=O)CN(C)C)CC2
2. Nc1ncc(Cc2ccc3c(c2)OCO3)c(N)n1
3. c1ccc(-c2c(-c3ccccc3)[n+](Cc3ccc4ccccc4c3)c(-c3ccc(-c4nc5ccccc5s4)cc3)n2Cc2ccc3ccccc3c2)cc1

1. 7.33 µM
2. > 100 µM
3. 1.01 µM

---

For each entry below, report its log10 TGI value.
- Tested on: OVCAR-5 ovarian
- protocol_description: NCI tumour cell line growth inhibition, 48 h
// units: µM (pre-log); metric: TGI; scale: log10

Guide cases for log10 TGI, answers given:
- compound: "Nc1nc2c(c3cnccc13)C(c1ccc(Cl)c(Cl)c1)Cc1cnccc1-2 (stereo not drawn)"
  experimental_endpoint: "log10 TGI"
  readout_value: 1.23
- compound: "O=c1oc2ccc3ccccc3c2cc1-c1cn2ccsc2n1"
  experimental_endpoint: "log10 TGI"
  readout_value: 1.82
- compound: "O=C1/C(=C/c2ccc(Cl)c(Cl)c2)CN(C(=O)CCN2CCC(=NO)CC2)C/C1=C\\c1ccc(Cl)c(Cl)c1"
  experimental_endpoint: "log10 TGI"
  readout_value: 0.44
- compound: "N#CC1c2ccccc2C=CN1C(=O)CCCl (stereo not drawn)"
  experimental_endpoint: "log10 TGI"
  readout_value: 1.41

# return log10 TGI for each item in the list
1. COc1cc([C@@H]2c3cc4c(cc3[C@@H](NC(=O)c3ccc(C#N)cc3)C3COC(=O)[C@@H]32)OCO4)cc(OC)c1O (stereo partly drawn)
2. O=C(ON=C1c2ccccc2C(Br)C(Br)c2ccccc21)c1ccccc1 (stereo not drawn)

1. 0.93
2. 1.55

# return log10 TGI for each item in the list
1. CCc1ccccc1NC(=O)c1cccc([N+](=O)[O-])c1O
2. COc1ccc2c(c1)c1c(n2CCN2CCCCC2)-c2cccc(OC)c2CC1
3. OCc1ccc2c(c1)CC1(C2)Cc2cc3c(cc2C1O)CCC3 (stereo not drawn)
4. CC1=CC2C3(C)C(C)(C(C)=CP3(=O)c3c(C(C)C)cc(C(C)C)cc3C(C)C)C1P2(=O)c1c(C(C)C)cc(C(C)C)cc1C(C)C (stereo not drawn)

1. 1.81
2. 1.52
3. 1.75
4. 0.80

---

- Test system: SK-MEL-28 melanoma
- protocol_description: NCI tumour cell line growth inhibition, 48 h
experimental_endpoint: TGI (µM)
One number for each entry, in µM.

# return TGI for each item in the list
1. Cc1c(C)n(-c2ccccc2)c2nc(S(C)=O)nc(S(C)=O)c12 (stereo not given)
2. COc1cccc(C2c3cc4c(cc3OC(O)C2C)OCO4)c1OC (stereo not given)
3. CCN(CC)CCCNc1ccc(C)c2sc3ccccc3c(=O)c12
4. CC1=CC2C3(C)C(C)(C(C)=CP3(=O)c3c(C(C)C)cc(C(C)C)cc3C(C)C)C1P2(=O)c1c(C(C)C)cc(C(C)C)cc1C(C)C (stereo not given)

14.9
39.5
0.435
8.23

---

- Tested on: NCI/ADR-RES ovarian
- protocol_description: NCI tumour cell line growth inhibition, 48 h
experimental_endpoint: TGI (µM)
Answers are plain numbers, in µM.

Guide cases for TGI, answers given:
- test_smiles: "CCN=c1sc2c(n1NC(=O)c1cc3ccc1CCc1ccc(cc1)CC3)C(=O)c1ccccc1C2=O"
  measured_target: "NCI/ADR-RES ovarian"
  readout_unit: "µM"
  TGI: 2.39
- test_smiles: "CNCc1cccc2c1OCCOCCOCCN(C)S(=O)(=O)c1ccc(cc1)-c1cnc(N)c(n1)C(=O)N2"
  measured_target: "NCI/ADR-RES ovarian"
  readout_unit: "µM"
  TGI: 32.6
- test_smiles: "N#CC1(c2ccc(NC(=O)c3cccnc3NCc3ccncc3)cc2)CCCC1"
  measured_target: "NCI/ADR-RES ovarian"
  readout_unit: "µM"
  TGI: 62.5
- test_smiles: "OCc1cn(Cc2ccccc2)c2ccccc12"
  measured_target: "NCI/ADR-RES ovarian"
  readout_unit: "µM"
  TGI: 42.4

Returns the measured TGI for the input compound. Input: NC1=CC(=O)c2c(O)ccc(O)c2C1=O
68.2
